protocol text: Oral acute toxicity (LD50) in rats
run conditions: rat, in vivo, oral administration

| structure smiles | LD50 |
| --- | --- |
| C=CCSC[C@H](N)C(=O)O | ≥ 1000 mg/kg |

###

protocol text: Oral acute toxicity (LD50) in mice
run conditions: mouse, in vivo, oral administration

| structure smiles | LD50 |
| --- | --- |
| C=CCSC[C@H](N)C(=O)O | ≥ 1000 mg/kg |
